- Test protocol: BSK_3C_uPAR: BioMAP Diversity Plus: 3C Assay for Urokinase-type plasminogen activator receptor (uPAR) Biomarker Activity (AID 2282998)
- Measurement setup: BioMAP 3C HUVEC, uPAR biomarker ELISA; actives raise or lower the signal
Activity calls are given as the source filed them. The calls were made as follows: active = hit-call score of the fitted dose curve at least 0.9, where 1 is the maximum; inactive = score below 0.9.
Reported endpoint: AC50

Use these answered entries as a reference point.
COC[C@H](C)N(C(=O)CCl)c1c(C)csc1C = inactive
CC(C)(OO)c1ccccc1 = inactive
ClC1(Cl)C2(Cl)C3(Cl)C4(Cl)C(Cl)(Cl)C5(Cl)C3(Cl)C1(Cl)C5(Cl)C24Cl (configuration not stated) = inactive
CCOP(=S)(OCC)SCCS(=O)(=O)CC = inactive
C=C(C)C(=O)[O][Sn]([CH2]CCC)([CH2]CCC)[CH2]CCC = 0.148 µM (active)

According to the records, this compound Nc1ncc([N+](=O)[O-])s1 displays AC50 of inactive

Value of measured AC50 for the entry O=[N+]([O-])c1ccc2c3c(cccc13)CC2 : 20 µM (active)

// AC50 value for O=C(Nc1ccc2[nH]ccc2c1)c1cc2cc(F)ccc2n1Cc1cccc(F)c1 : 7.15 µM (active)

Reported AC50 of CC(C)(c1ccccc1)c1ccc(O)c(C(C)(C)c2ccccc2)c1 : 9.74 µM (active)

AC50 reading for CC(=O)C(Cl)C(=O)N(C)C (configuration not stated) : 30.1 µM (active)

Lab note: O=C(O)CCC(F)(C(F)(F)F)C(F)(F)F gave AC50 of inactive

Looking up OCc1ccco1 , I found its AC50 recorded as inactive

Kindly note the recorded AC50 for CC12CC1(C)C(=O)N(c1cc(Cl)cc(Cl)c1)C2=O (configuration not stated) , which is inactive

AC50 measured on COP(=S)(OC)Oc1ccc(S(=O)(=O)N(C)C)cc1 = inactive

get_value(item= CCOP(=S)(OCC)Oc1ccc(S(C)=O)cc1 (configuration not stated) , readout=AC50) returns inactive

Sure, the documented AC50 for CC(C)(C)c1cc(O)ccc1O is inactive

So, O=C1C2(Cl)C3(Cl)C4(Cl)C(Cl)(Cl)C5(Cl)C3(Cl)C1(Cl)C5(Cl)C24Cl (configuration not stated) ? Its AC50 was 7.28 µM (active)

Sample COP(=S)(OC)Oc1c(Cl)cc(C)cc1Cl ; AC50 observed: inactive

Documented AC50 of O=[N+]([O-])c1ccc(O)c([N+](=O)[O-])c1 : inactive

Lookup result for Oc1c(I)cc(I)cc1I ; measured AC50: 10.5 µM (active)

Entry Nc1ccc(-c2ccc(N)c(Cl)c2)cc1Cl ; AC50 = 6.24 µM (active)

Entry NC(=O)O ; AC50 = inactive

# AC50 (compound: CCSC(C)CC1CC(=O)C(C(CC)=NOC/C=C/Cl)=C(O)C1 (configuration not stated) ) is inactive

For this compound ( ClCC(Cl)CCl ), measured AC50 is inactive
